Each recorded value in this set is attributed to paper PMC4995014.

Reported log10 of GI50 values for the following compounds.
# Test system: MCF7 cells
# assay details: SRB cell viability assay in MCF7 cells
# Format: cell-based
# condition description: Homo sapiens, 72 h, without FTC
# Protocol: Cell viability by the sulforhodamine B (SRB) assay was used to assess cell growth and cytotoxicity of test compounds [29]. Cells were seeded at densities of 3,500 to 5,000 cells per well in 96 well plates overnight and pre-treated for 1 h with ABC transporter modulators: 10 μM fumitremorgin C (FTC; in MCF7MX and MCF7 cells), or 0.3 μM of zosuquidar (in 3T3 and 3T3-MDR1). […] Absorbance was measured at 540 nm using Thermo Multiskan-Ex plate reader. […]
Field: value | Transform: log10 | Quantity: GI50 | Unit: µM

These solved cases illustrate the format of a correct answer.
1. CCOc1cc2ncc(C#N)c(Nc3ccc(F)c(Cl)c3)c2cc1NC(=O)/C=C/CN(C)C [EKB-569, pelitinib, reference compound]	0.42
2. CCOc1cc2ncc(C#N)c(Nc3ccc(F)c(Cl)c3)c2cc1N	1.06
3. CC[C@]1(O)C[C@@H]2CN(CCc3c([nH]c4ccccc34)[C@@](C(=O)OC)(c3cc4c(cc3OC)N(C)[C@H]3[C@@](O)(C(=O)OC)[C@H](OC(C)=O)[C@]5(CC)C=CCN6CC[C@]43[C@@H]65)C2)C1 [Vinblastine, reference compound]	-2.29
4. CCOc1cc2ncc(C#N)c(Nc3ccc(F)c(Cl)c3)c2cc1NC(=O)/C=C/CNCc1cn(CCF)nn1	1.08
5. O=C1c2c(O)ccc(O)c2C(=O)c2c(NCCNCCO)ccc(NCCNCCO)c21 [Mitoxantrone, reference compound]	1.03

// switching to the query compound
Kindly note the recorded log10 of GI50 for CCOc1cc2ncc(C#N)c(Nc3ccc(F)c(Cl)c3)c2cc1NC(=O)/C=C/CNC , which is 1.17
